Tested on: Fibroblast
test_summary: Incucyte cell viability with human fibroblast; also: unitless GR value; below 1 slowed growth and below 0 cell loss
Type: toxicity, cell-based
condition_set: 6 h, 10 µM, compound concentration 10 uM, replicate number 2
measured_property: Growth Rate
Give a plain numeric answer without units written out.

In the examples that follow, each entry is paired with its recorded Growth Rate.
| compound | Growth Rate |
| --- | --- |
| C#Cc1cnc2[nH]cc(-c3cccc4c3CCN4C(=O)[C@@H]3CCCN3C#N)c2c1 | -1 |
| C=CC[C@@H]1/C=C(\C)C[C@H](C)C[C@H](OC)[C@H]2O[C@@](O)(C(=O)C(=O)N3CCCC[C@H]3C(=O)O[C@H](/C(C)=C/[C@@H]3CC[C@@H](O)[C@H](OC)C3)[C@H](C)[C@@H](O)CC1=O)[C@H](C)C[C@@H]2OC.O | -0.26 |
| NC(=O)c1ccc(-c2nc(-c3ccc4c(c3)OCO4)c(-c3ccccn3)[nH]2)cc1.O | -0.54 |
| CCCCC[C@@](C)(O)/C=C/[C@H]1C(=O)CC(O)C1C/C=C\CCCC(=O)O (some centres not stated) | -0.92 |
| C[C@@H](c1ccc(F)cc1)n1nnc2cnc3ccc(-c4ccc5ocnc5c4)cc3c21 | 0.8 |
| C[C@@H](CN1CCC(Cc2ccccc2)CC1)[C@@H](O)c1ccc(O)cc1 | -0.45 |

Please find the next compound below.
The value of Growth Rate recorded for O=C(Cc1ccccc1)Nc1nnc(N2C[C@H]3C[C@@H]2CN3c2cccnn2)s1 when tested on Fibroblast reads -0.04
